This collection of values is drawn from ChEMBL document CHEMBL2177069.

# Tested on: OVCAR-8
# protocolDetails: Cytotoxicity against human OVCAR8 cells
# Type: functional
# measurementSetup: read-out: pTGI (converted)
propertyLabel: TGI (µM)
Give bare numbers, in µM.

molecule | TGI / µM
CC1=C([Se]CC(OC(=O)[C@@H](CO)NC(=O)OC(C)(C)C)C(=O)NC(C)(C)C)C(=O)c2ccccc2C1=O (some centres undefined) | 3.55

Hi! Can you tell me TGI for each of these molecules?
1. CC1=C([Se]CC(OC(=O)[C@@H](CSSC(C)(C)C)NC(=O)C(C)(C)C)C(=O)NCCCCCC(=O)OCc2ccccc2)C(=O)c2ccccc2C1=O (some centres undefined)
2. CC1=C(SCCC(=O)OC(C[Se]C2=C(C)C(=O)c3ccccc3C2=O)C(=O)NCCCCCC(=O)OCc2ccccc2)C(=O)c2ccccc2C1=O (centres undefined)
3. CC1=C([Se]CC(OC(=O)[C@@H](CO)NC(=O)OC(C)(C)C)C(=O)NCCCCCC(=O)OCc2ccccc2)C(=O)c2ccccc2C1=O (some centres undefined)

[3.8, 15.1, 3.39]

====

# System: BT-549
# protocolDetails: Cytotoxicity against human BT549 cells
# Format: functional
# measurementSetup: read-out: pTGI (converted)
propertyLabel: TGI
Returns: string containing the numeric result and its unit.

Record excerpt, results attached:
compound | TGI
CC1=C(SCCC(=O)OC(C[Se]C2=C(C)C(=O)c3ccccc3C2=O)C(=O)NCCCCCC(=O)OCc2ccccc2)C(=O)c2ccccc2C1=O (centres undefined) | 12.9 µM
CC1=C([Se]CC(OC(=O)[C@@H](CO)NC(=O)OC(C)(C)C)C(=O)NC(C)(C)C)C(=O)c2ccccc2C1=O (some centres undefined) | 2.95 µM

Can you give me TGI for all of these, one by one?
1. CC1=C([Se]CC(OC(=O)[C@@H](CO)NC(=O)OC(C)(C)C)C(=O)NCCCCCC(=O)OCc2ccccc2)C(=O)c2ccccc2C1=O (some centres undefined)
2. CC1=C([Se]CC(OC(=O)[C@@H](CSSC(C)(C)C)NC(=O)C(C)(C)C)C(=O)NCCCCCC(=O)OCc2ccccc2)C(=O)c2ccccc2C1=O (some centres undefined)

["3.09 µM", "3.16 µM"]

====

Exercise: for every item that follows, state its recorded GI50.
# System: KM12
# protocolDetails: Cytotoxicity against human KM12 cells
# Assay type: functional
Numbers only, in µM.

molecule | measurementTarget | GI50 / µM
CC1=C([Se]CC(OC(=O)[C@@H](CSSC(C)(C)C)NC(=O)C(C)(C)C)C(=O)NCCCCCC(=O)OCc2ccccc2)C(=O)c2ccccc2C1=O (some centres undefined) | KM12 | 1.78
CC1=C([Se]CC(OC(=O)[C@@H](CO)NC(=O)OC(C)(C)C)C(=O)NC(C)(C)C)C(=O)c2ccccc2C1=O (some centres undefined) | KM12 | 1.51
CC1=C([Se]CC(OC(=O)[C@@H](CO)NC(=O)OC(C)(C)C)C(=O)NCCCCCC(=O)OCc2ccccc2)C(=O)c2ccccc2C1=O (some centres undefined) | KM12 | 1.51

Now for another entry.
Can you share its GI50? I mean this molecule: CC1=C(SCCC(=O)OC(C[Se]C2=C(C)C(=O)c3ccccc3C2=O)C(=O)NCCCCCC(=O)OCc2ccccc2)C(=O)c2ccccc2C1=O (centres undefined) 1.41
